- Tested on: MST3
- Construct: gene STK24
- Condition description: concentration: 1 μM,replicates: in singlicate; n = 1;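 also: KINOMEscan kinase panel screen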
Class rule met: %Inh at least 1%. Class rule not met: %Inh below 1%.

Compound: Cl.Nc1n[nH]c2cc(-c3ccccn3)ccc12
Discrete label: rule not met

Compound: CSc1nccc(-c2c(-c3ccc(F)cc3)ncn2CCCN2CCOCC2)n1.Cl
Discrete label: rule met

Compound: COC(=O)c1cccc(NC(=O)NC2CCN(c3ccnc(Nc4cc(OC)c(OC)c(OC)c4)n3)C2)c1 (stereo not drawn)
Discrete label: rule not met

Compound: Cl.c1ccc(Oc2ccc(Nc3ccnc4cc(-c5ccc(CN6CCNCC6)o5)ccc34)cc2)nc1
Discrete label: rule met

Compound: C[C@@H]1CNc2c(sc3ccc4nc(-c5ccc(O)cc5)ccc4c23)C(=O)N1
Discrete label: rule met

Compound: CC(=O)c1c(-c2ccncc2)[nH]c(-c2ccncc2)c1C
Discrete label: rule not met

Compound: CCN1CCN(CCCC(=O)Nc2n[nH]c3nc(-c4ccc(O)cc4)c(Br)cc23)CC1
Discrete label: rule not met

Compound: O=C(NOCC1CC1)c1cc(Br)c(F)c(F)c1Nc1ccc(I)cc1Cl
Discrete label: rule met

Compound: O=C(Nc1cccc(C(F)(F)F)c1)c1cccc(Oc2ccc3nccn3n2)c1
Discrete label: rule not met

Compound: CN1CCN(CCCNc2nccc(-c3c(-c4ccc(F)cc4)nn4cc(C(N)=O)ccc34)n2)CC1
Discrete label: rule met

Compound: CCOC(=O)N1CCC(n2cnc(-c3ccc(F)cc3)c2-c2ccnc(N)n2)CC1
Discrete label: rule met

Compound: Cc1cccc(-c2nc(Nc3ccncc3)c3sccc3n2)n1
Discrete label: rule met

Compound: O=C(NCC1CC1)c1ccc(-c2cc(C(=O)NC3CC3)ccc2F)cc1
Discrete label: rule not met

Compound: c1ccc(Oc2ccc(Nc3ccnc4ccc(-c5ccccn5)cc34)cc2)cc1
Discrete label: rule met

Compound: Cn1ccc2ncnc(Oc3ccc(NC(=O)Nc4cccc(C(F)(F)F)c4)c(F)c3)c21
Discrete label: rule not met

Compound: CS(=O)(=O)Nc1ccc(-c2ccnc3[nH]ccc23)cc1
Discrete label: rule met

###

- Test system: SRPK1
- Condition description: concentration: 1 μM,replicates: in singlicate; n = 1
Assay metric: %Inh (%)

Compound: NC(=O)Nc1sc(-c2ccc(F)cc2)cc1C(N)=O
Target of assay: SRPK1
Assay metric: %Inh
Unit string: %
Quantitative readout: 81
--
Compound: Cc1cccc(-c2nc(Nc3ccncc3)c3sccc3n2)n1
Target of assay: SRPK1
Assay metric: %Inh
Unit string: %
Quantitative readout: 7
--
Compound: Cn1ccc2ncnc(Oc3ccc(NC(=O)Nc4cc(C(C)(C)C)on4)c(Cl)c3)c21
Target of assay: SRPK1
Assay metric: %Inh
Unit string: %
Quantitative readout: 80
--
Compound: O=C1NCCc2[nH]c(-c3ccncc3)cc21
Target of assay: SRPK1
Assay metric: %Inh
Unit string: %
Quantitative readout: 0
--
Compound: O=C(Nc1cccc(C(F)(F)F)c1)c1cccc(Oc2ccc3nccn3n2)c1
Target of assay: SRPK1
Assay metric: %Inh
Unit string: %
Quantitative readout: 3

###

- Test system: MELK
- Condition description: concentration: 1 μM,replicates: in singlicate; n = 1
Assay metric: %Inh (%)

Compound: Cn1ccc2ncnc(Oc3ccc(NC(=O)Nc4ccnc(C(F)(F)F)c4)c(Cl)c3)c21
Quantitative readout: 0
//
Compound: O=C1NCCc2[nH]c(-c3ccncc3)cc21
Quantitative readout: 21
//
Compound: Cl.Nc1n[nH]c2cc(-c3ccccn3)ccc12
Quantitative readout: 2
//
Compound: Cc1nnc(-c2ccc3occ(-c4ccc(S(C)=O)cc4)c3n2)o1 (centres unmarked)
Quantitative readout: 0
//
Compound: CC(=O)Nc1ccc(-c2cc3ncnc(SCC(=O)O)c3s2)cc1
Quantitative readout: 0

###

- Tested on: FRK
- Condition description: concentration: 1 μM,replicates: in singlicate; n = 1
Class TRUE: %Inh at least 10%. Class FALSE: %Inh below 10%.

Compound: CN1CCN(CCCNc2nccc(-c3c(-c4ccc(F)cc4)nn4cc(C(N)=O)ccc34)n2)CC1 [GW622475]
Target of assay: FRK
Discrete label: FALSE

Compound: C[C@@H]1CCN(C(=O)N2CCCC2)C[C@@H]1N(C)c1ncnc2[nH]ccc12
Target of assay: FRK
Discrete label: FALSE

Compound: COc1cccc(OC)c1C(=O)Nc1cccc(-c2nn3ccccc3c2-c2ccnc(Nc3cccc(F)c3)n2)c1 [GSK361065]
Target of assay: FRK
Discrete label: TRUE

Compound: Cn1ccc2ncnc(Oc3ccc(NC(=O)Nc4cc(C(C)(C)C)on4)c(Cl)c3)c21
Target of assay: FRK
Discrete label: TRUE

Compound: CS(=O)(=O)Nc1ccc(-c2ccnc3[nH]ccc23)cc1 [GSK993273]
Target of assay: FRK
Discrete label: FALSE

Compound: Cc1ccc2c(-c3ccnc(Nc4ccc(C(F)(F)F)cc4)n3)cnn2n1 [GW819776]
Target of assay: FRK
Discrete label: TRUE

Compound: CC(C(=O)NC1CCN(c2ccnc(Nc3ccc(F)cc3)n2)C1)c1ccc(Cl)cc1 (centres unmarked) [GSK1379713]
Target of assay: FRK
Discrete label: FALSE

Compound: Cc1ccc(C(=O)Nc2ccc(Oc3ccc4nc(NC(=O)C5CC5)cn4c3)c(F)c2)c(=O)n1-c1ccccc1
Target of assay: FRK
Discrete label: TRUE

Compound: CC(=O)Nc1nc2cnc(Nc3cc(NC(=O)c4cccc(CC(C)(C)C#N)c4)ccc3C)nc2s1
Target of assay: FRK
Discrete label: TRUE

Compound: CC(=O)Nc1ccc(-c2cc3ncnc(SCC(=O)O)c3s2)cc1
Target of assay: FRK
Discrete label: FALSE

Compound: CCOC(=O)N1CCC(n2cnc(-c3ccc(F)cc3)c2-c2ccnc(N)n2)CC1 [SB-219952]
Target of assay: FRK
Discrete label: FALSE

Compound: Cc1cccc2c(-c3ccncc3)c(-c3ccc(F)cc3)nn12.Cl [GW461487]
Target of assay: FRK
Discrete label: FALSE

Compound: Cn1ccc2ncnc(Oc3ccc(NC(=O)Nc4cnn(C(C)(C)C)c4)c(Cl)c3)c21
Target of assay: FRK
Discrete label: TRUE

Compound: O=c1[nH]cc(-c2ccc(O)cc2)c2sc(-c3ccncc3)cc12 [GSK1033723]
Target of assay: FRK
Discrete label: FALSE

Compound: O=C(Nc1cccc(C(F)(F)F)c1)c1cccc(Oc2ccc3nccn3n2)c1
Target of assay: FRK
Discrete label: TRUE

Compound: CNC(=O)c1ccccc1Nc1nc(Nc2cccc(CS(C)(=O)=O)c2)ncc1C.O=CO [GSK1520489]
Target of assay: FRK
Discrete label: TRUE

Compound: COc1cc(Nc2nccc(N3CCC(NC(=O)c4cccc(C#N)c4)C3)n2)cc(OC)c1OC (centres unmarked) [GSK1379751]
Target of assay: FRK
Discrete label: FALSE

Compound: Nc1nccc(-c2ccc3c(N)n[nH]c3c2)n1 [GSK1034945]
Target of assay: FRK
Discrete label: FALSE

Compound: COc1cc2c(Nc3ccc(NC(=O)c4ccccc4)cc3)ncnc2cc1OCCCN1CCOCC1 [GSK301329]
Target of assay: FRK
Discrete label: FALSE

Compound: Cn1ccc2ncnc(Oc3ccc(NC(=O)Nc4cccc(C(F)(F)F)c4)c(F)c3)c21
Target of assay: FRK
Discrete label: TRUE

Compound: Cc1cccc(-c2nc(Nc3ccncc3)c3sccc3n2)n1 [GW869641]
Target of assay: FRK
Discrete label: FALSE

Compound: Cn1ccc2ncnc(Oc3ccc(NC(=O)Nc4ccnc(C(F)(F)F)c4)c(Cl)c3)c21
Target of assay: FRK
Discrete label: FALSE

Compound: CN1CCN(CCNc2nc3cc(Oc4ccc(NC(=O)Nc5cc(C(F)(F)F)ccc5F)cc4)ccc3[nH]2)CC1.Cl.Cl [GW768504]
Target of assay: FRK
Discrete label: TRUE

Compound: C[C@@H](Oc1cc(-n2cnc3cc(-c4ccncc4)ccc32)sc1C(N)=O)c1ccccc1Cl [GSK479719]
Target of assay: FRK
Discrete label: TRUE

Compound: COC(=O)c1cccc(NC(=O)NC2CCN(c3ccnc(NCc4ccc(F)cc4)n3)CC2)c1 [GSK1379860]
Target of assay: FRK
Discrete label: TRUE

Compound: COc1cc2ncn(-c3cc(OCC4CCCCC4)c(C(N)=O)s3)c2cc1OC [GSK204559]
Target of assay: FRK
Discrete label: FALSE

Compound: C[C@@H](Oc1cc(-n2cnc3ccc(-c4ccncc4)cc32)sc1C(N)=O)c1ccccc1Cl [GSK483724]
Target of assay: FRK
Discrete label: TRUE

Compound: O=C1NCCc2[nH]c(-c3ccncc3)cc21
Target of assay: FRK
Discrete label: FALSE

Compound: O=C(Nc1cccc(Oc2ccc3nccn3n2)c1)Nc1cccc(C(F)(F)F)c1
Target of assay: FRK
Discrete label: TRUE

Compound: O=C(Nc1n[nH]c2cc(-c3ccco3)ccc12)C1CC1 [SB-737447]
Target of assay: FRK
Discrete label: FALSE

Compound: O=C(NCC1CC1)c1ccc(-c2cc(C(=O)NC3CC3)ccc2F)cc1 [GW810445]
Target of assay: FRK
Discrete label: FALSE

Compound: COC(=O)Nc1nc2cc(Oc3ccc(NC(=O)Nc4cc(C(F)(F)F)ccc4Cl)cc3)ccc2[nH]1.Cl [GW697465]
Target of assay: FRK
Discrete label: TRUE

Compound: C[C@@H]1CNc2c(sc3ccc4nc(-c5ccc(O)cc5)ccc4c23)C(=O)N1
Target of assay: FRK
Discrete label: FALSE

Compound: NC(=O)Nc1sc(-c2ccc(F)cc2)cc1C(N)=O [GW789449]
Target of assay: FRK
Discrete label: FALSE

The values you see were collected from paper PMC5540273.
